test system: COLO 205 colon; experiment: NCI-60 one-dose screen, 48 h (100 = growth as untreated, 0 = no growth, -100 = all killed); details: 10 µM
About 83,000 compounds went through this panel and 20% of them were active in at least one assay; those are over-represented in the sample as a whole. Calls of active or inactive are those of the source. Rule for the calls: active = growth percent below 10; inactive = the rest.
Property: growth; scope: individual compounds

So what growth did "O=C(Nc1cccc(C(F)(F)F)c1)C(Cl)Cl" get with COLO 205 colon?
101% (inactive)

Please do the same for "CCCCCCCC/C=C/CCCCCCCCC1=NCCN1CCO" as well.
70.7% (inactive)

----------
system: SF-268 CNS; experiment: NCI-60 one-dose screen, 48 h; settings: 10 µM
This is part of a sample that, as a whole, favours compounds with a hit. Of some 83,000 tested, about 20% had one in any assay. Activity calls are given as the source filed them. The calls were made as follows: active = growth percent below 10; inactive = the rest.
Choose one outcome from this list and give only that: Y = active, N = inactive

- molecule: "CCOC(=O)/C(C#N)=C(/C)C1CC1"
  group-label: "N"
- molecule: "O=C(NNc1nc(N2CCCC2)nc(N2CCCC2)n1)c1ccccc1"
  group-label: "N"
- molecule: "COc1cccc2c1O/C(=C\\c1ccc([N+](=O)[O-])s1)C2=O"
  group-label: "N"

Could you now consider this next molecule?
Outcome logged for COc1ccc(C2CC(c3ccc(-c4ccccc4)cc3)=NN2c2ccc(S(N)(=O)=O)cc2)cc1 (stereo not drawn) in this assay:
N

----------
Tested on: OVCAR-5 ovarian
Experiment: NCI-60 one-dose screen, 48 h (100 = growth as untreated, 0 = no growth, -100 = all killed)
Conditions: 10 µM
Description: Growth inhibition of the OVCAR-5 human tumor cell line is measured as a screen for anti-cancer activity. Cells are grown in 96 well plates and exposed to the test compound for 48 hours. Compounds are tested at a single concentration, which is 10^-5 M for most compounds. The reported endpoint is percent growth (GI% or GIPRCNT), where numbers from 0 - 100% represent growth inhibition, and numbers from -100% - 0 represent cell death. For example, a value of 40 represents 60% growth inhibition. […]
Compounds without any hit were thinned out: in the full panel of roughly 83,000, 20% have a hit.
Kindly return 1 if reported growth is no lower than 90%; return 0 if it is lower.

Could you verify whether the entry "COc1ccc(S(=O)(=O)Nc2ccc(OCc3nnc(-c4ccc(Cl)cc4)o3)c(F)c2)cc1" shows growth of no less than 90%?
1

Please do the same for "C[C@]12CC[C@H]3[C@@H](CC=C4C[C@@H](O)CC[C@@]43C)[C@@H]1CC[C@@H]2C(=O)C/C=N/O" as well.
1

Please do the same for "O=C1/C(=C/c2ccc(O)cc2)Oc2ccc(Cl)cc21" as well.
1

Please do the same for "O=C(CCl)N1c2ccccc2Sc2ccc3ccccc3c21" as well.
0

----------
test system: NCI/ADR-RES ovarian; assay: NCI-60 one-dose screen, 48 h (100 = growth as untreated, 0 = no growth, -100 = all killed); details: 10 µM
About 83,000 compounds went through this panel and 20% of them were active in at least one assay; those are over-represented in the sample as a whole.
reported-metric: growth (%)
Give the number; % is assumed, so skip it.

Reference set (10 entries):
- compound: "CCc1nn2c(-c3ccccc3)c(-c3cc(OC)c(OC)c(OC)c3)nc2s1"
  growth [%]: 77.1
- compound: "COc1cc(CSc2nc3ccc(C)cc3c(=O)n2Cc2ccccc2)cc(OC)c1OC"
  growth [%]: 12.7
- compound: "N#Cc1ccc(-n2cnc(NC(=O)[C@H]3CCN(C#N)C3)c2)cc1"
  growth [%]: 36.6
- compound: "CCOC(=O)c1c(O)c2cc(-c3ccccc3)nc(OCC)c2c(=O)n1C"
  growth [%]: 82.2
- compound: "O=NN(CC(=O)N/N=C/C=C\\c1ccccc1)CC(=O)N/N=C/C=C/c1ccccc1"
  growth [%]: 103
- compound: "COC(=O)[C@]12CC[C@@H](C)[C@H](C)[C@@H]1C1=CC[C@@H]3[C@@]4(C)CC(=O)[C@H](O)[C@@](C)(CO)[C@@H]4C(=O)C[C@@]3(C)[C@]1(C)CC2"
  growth [%]: -24.3
- compound: "FC(F)(F)c1ccc(-c2ncc(-c3ccc(C(F)(F)F)cc3)c(NCc3cc(C(F)(F)F)cc(C(F)(F)F)c3)n2)cc1"
  growth [%]: 68.5
- compound: "c1ccc(C2CCCCC2)c(OCCCCCN2CCNCC2)c1"
  growth [%]: 70
- compound: "COc1ccc(/C=C2\\CCC3C(CCCC34OCCO4)C2=O)cc1 (stereo not given)"
  growth [%]: 75.8
- compound: "C=C1C(=O)O[C@H]2[C@H]1CC/C(COC(=O)OCCCCCOC(=O)OC/C1=C/CC[C@@]3(C)O[C@H]3[C@H]3OC(=O)C(=C)[C@@H]3CC1)=C\\CC[C@@]1(C)O[C@@H]21"
  growth [%]: 42.5

So what growth did "COc1ccc2c(=O)cc(C(Cl)(Cl)Cl)oc2c1" get with NCI/ADR-RES ovarian?
10.3

Please do the same for NC1CCC(Nc2nc(NCc3ccc(-c4cccs4)nc3)c3ncn(C4CCCC4)c3n2)CC1 (stereo not given) as well.
38.1

Please do the same for "Cc1ccc(-c2cc(C(=O)Nc3ccc(S(=O)(=O)N4CCCCC4)cc3)[nH]n2)c(O)c1" as well.
59.9

Please do the same for CCC(O)c1ccc(Br)cc1NC(=O)c1cccc(Cl)c1 (stereo not given) as well.
5.46

Please do the same for "CCOC(=O)Nc1ccc2c(c1)C(=O)N(CCOC)c1ccccc1O2" as well.
24.1

Please do the same for "N#CCC1CCCC1" as well.
101

Please do the same for "COc1ccc(CSc2nc3cc(OC)c(OC)cc3c(=O)n2-c2ccc(OC)cc2OC)cc1" as well.
79.5
